# TEST_SUMMARY: Plasma clearance in Sprague-Dawley rat at 3 mg/kg, iv by HPLC/MS/MS analysis
# Format: ADME, organism-based
# Design: dose 3 mg/kg, route intravenous
RECORDED_METRIC: clearance (mL/min/kg)
Use mL/min/kg as the unit, but write only the number.

Problem: What value of measured clearance is listed for CC(C)N(Cc1ccccc1)C(=O)CN1C(=O)[C@@H](Cc2c[nH]c3ccccc23)c2nnc(-c3ccccc3)n2-c2ccccc21 ?
Solution: 41.7

---

# TEST_SUMMARY: Intrinsic clearance in human liver microsomes
# Format: ADME, Microsome
RECORDED_METRIC: CLint scaled

Below: 2 compounds and their reported CLint scaled.
Problem: What value of measured CLint scaled is listed for CC(C)N(C(=O)CN1C(=O)[C@H](NC(=O)Nc2cccc(C(=O)O)c2)C(=O)N(c2ccccc2)c2ccccc21)c1ccccc1 ?
Solution: < 8 mL/min/kg

Problem: What value of measured CLint scaled is listed for CC(C)N(Cc1ccccc1)C(=O)CN1C(=O)C(Cc2n[nH]c3ccccc23)c2nnc(-c3ccccc3)n2-c2ccccc21 (stereo not drawn) ?
Solution: 39.5 mL/min/kg

Query compound follows.
Problem: What value of measured CLint scaled is listed for CC(C)N(Cc1ccccc1)C(=O)CN1C(=O)[C@@H](Cc2c[nH]c3ccccc23)c2nnc(-c3ccccc3)n2-c2ccccc21 [CE-326597] ?
Solution: 199 mL/min/kg
